- targetDesc: recombinant human UGT1A1 (Homo sapiens, UniProt P22309)
- Sequence (P22309 26-533): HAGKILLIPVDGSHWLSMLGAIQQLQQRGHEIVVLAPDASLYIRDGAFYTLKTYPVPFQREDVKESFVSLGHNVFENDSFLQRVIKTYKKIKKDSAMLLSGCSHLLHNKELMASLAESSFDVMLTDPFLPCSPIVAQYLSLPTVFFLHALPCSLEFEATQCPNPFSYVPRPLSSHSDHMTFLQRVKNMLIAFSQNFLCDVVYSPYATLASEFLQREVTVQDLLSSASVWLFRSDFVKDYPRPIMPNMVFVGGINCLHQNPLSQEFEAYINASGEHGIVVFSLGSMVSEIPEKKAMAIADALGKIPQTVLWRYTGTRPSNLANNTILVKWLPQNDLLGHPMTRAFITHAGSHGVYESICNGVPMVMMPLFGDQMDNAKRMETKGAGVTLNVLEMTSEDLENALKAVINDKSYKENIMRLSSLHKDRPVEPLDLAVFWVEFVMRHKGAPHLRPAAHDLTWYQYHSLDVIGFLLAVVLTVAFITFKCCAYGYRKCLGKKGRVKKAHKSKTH
- experimentDescription: 4-MU glucuronidation inhibition assay with recombinant human UGT1A1 isoform
Where a name gives a salt, the structure may show the parent alone.
measuredMetric: IC50

Q. Quick one: IC50 for O=C(O)Cc1ccccc1Nc1c(Cl)cccc1Cl ?
A. 2.34 µM

Q. Quick one: IC50 for CNC1(c2ccccc2Cl)CCCCC1=O (centres unmarked) [Ketamine, Ketamine hydrochloride] ?
A. > 1000 µM

* * *

- targetDesc: recombinant human UGT2B7 (Homo sapiens, UniProt P16662)
- Sequence (P16662 24-529): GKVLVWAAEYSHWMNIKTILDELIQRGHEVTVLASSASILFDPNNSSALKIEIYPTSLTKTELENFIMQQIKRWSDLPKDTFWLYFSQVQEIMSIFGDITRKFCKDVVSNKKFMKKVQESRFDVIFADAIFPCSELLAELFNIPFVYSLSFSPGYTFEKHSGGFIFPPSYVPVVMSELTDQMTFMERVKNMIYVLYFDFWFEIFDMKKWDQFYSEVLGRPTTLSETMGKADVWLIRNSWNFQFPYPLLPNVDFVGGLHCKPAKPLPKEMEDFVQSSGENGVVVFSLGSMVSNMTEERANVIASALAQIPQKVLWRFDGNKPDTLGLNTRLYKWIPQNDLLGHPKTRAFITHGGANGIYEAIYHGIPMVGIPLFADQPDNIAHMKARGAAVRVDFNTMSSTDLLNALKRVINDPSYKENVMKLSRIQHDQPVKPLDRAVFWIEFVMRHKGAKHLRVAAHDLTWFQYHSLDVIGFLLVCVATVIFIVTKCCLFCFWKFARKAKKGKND
- experimentDescription: 4-MU glucuronidation inhibition assay with recombinant human UGT2B7 isoform
Counter-ions that a name gives are not always drawn.
measuredMetric: IC50 (µM)
Record the value in µM, omitting the unit from your answer.

Q. Quick one: IC50 for CNC1(c2ccccc2Cl)CCCCC1=O (stereo not shown) [Ketamine, Ketamine hydrochloride] ?
A. 27.3
